Experiment: Toxicity liver stage against HepG2, at 10uM
Type: cell-based
Parameters: test concentration 10 uM, cell line HepG2-A16-CD81EGFP
Details: human, HepG2-A16-CD81EGFP cells; read-out: INHIBITION
MEASUREMENT_NAME: cytotoxicity at 10 µM (%)
One number for each entry, in %.

Examples with answers:
stdin: Using the record for CCOCCCC(=O)NCc1ccc(N2CCCCC2)cc1 , report its cytotoxicity at 10 µM.
stdout: -4.06

stdin: Look up cytotoxicity at 10 µM for this compound: O=C(NCCNc1ccccn1)NCC1CCS(=O)(=O)C1 (configuration not stated)
stdout: 1.48

stdin: Quick one: cytotoxicity at 10 µM of O=C(c1cc(-n2cnnn2)ccc1Cl)N1CCCCCC1 ?
stdout: 5.56

stdin: What value of measured cytotoxicity at 10 µM is listed for C1CC(c2noc(C3CC3)n2)CN(Cc2noc(C3CC3)n2)C1 (configuration not stated) ?
stdout: -5.16

stdin: What cytotoxicity at 10 µM value was documented for this compound, COCCN(C)S(=O)(=O)c1cc(C)cc(F)c1 ?
stdout: 3.49

stdin: // cytotoxicity at 10 µM lookup, key: O[C@@H]1C[C@H]2CN(CC3CCCCC3)[C@H](Cc3ccccc3)CN2C1
stdout: 0.13

stdin: Any idea what its cytotoxicity at 10 µM is? The compound is Cc1nc(NCCSc2cnn[nH]2)c2cccnc2n1
stdout: 2.98

stdin: Would you mind telling me what cytotoxicity at 10 µM value was observed for CN(C)CCOCc1ncn2c1CN(c1ncc(F)cn1)CCC2 ?
stdout: 15

// input: 3 compounds below; output: cytotoxicity at 10 µM for each
1. Cc1ocnc1C(=O)N1CCCC1c1ccc(C(=O)N2CCSCC2)s1 (configuration not stated)
2. Cc1ccnc(C2CCN(S(=O)(=O)c3cn(C)cn3)CC2)n1
3. CCc1oc(C(=O)NC(C)Cc2cnccn2)cc1CN1CCCC1 (configuration not stated)

stdout:
1. -5.37
2. 3.24
3. -5.28

stdin: Given the compound Cc1cnc(N)c(C(=O)C2CCN(C(=O)c3ccccc3F)CC2)c1 , what is its reported cytotoxicity at 10 µM?
stdout: 9.96

###

Exercise: state measured cytotoxicity at 10 µM for each of the molecules provided.
Experiment: Toxicity liver stage against HepG2, at 10uM
Format: cell-based
Design: test concentration 10 uM, cell line HepG2-A16-CD81EGFP
Details: human, HepG2-A16-CD81EGFP cells; read-out: INHIBITION
One number for each entry, in %.

stdin: Look at this molecule and give its reported cytotoxicity at 10 µM. COCCOc1ncccc1C(=O)N(C)c1ccc(OC)c(OC)c1
stdout: -46.7

stdin: Fill in: cytotoxicity at 10 µM of Cc1nc(O)cc(CN2C[C@H](NS(=O)(=O)N(C)C)[C@@H](C3CC3)C2)n1 is ___
stdout: -5.01

stdin: // returns reported cytotoxicity at 10 µM for input Cc1nn(C)c(C)c1C1CCCN1C(=O)c1ccc(CN(C)C)cc1 (stereo unspecified)
stdout: -7.79

stdin: Which cytotoxicity at 10 µM is listed for COc1ccc(CN2CCN(CC3CC3)[C@@H]3CS(=O)(=O)C[C@@H]32)cc1C ?
stdout: -1.95

stdin: Entry O=C1CCCN1Cc1nnc2n1CCCN(C(=O)c1ccc[nH]1)C2 has what cytotoxicity at 10 µM?
stdout: -107

stdin: # query: cytotoxicity at 10 µM of entry Cc1c[nH]c(CN(C)C(=O)C(C)(C)NC(=O)c2cccs2)n1
stdout: 3.08

Lab note: each molecule below needs its cytotoxicity at 10 µM filled in.
1. O=C(CN1CCc2cncnc2C1)NC(c1ccccc1)C1CC1 (stereo unspecified)
2. Cc1nc(-c2cccc(N3CCC(N4CCCC(C#N)C4)CC3)c2)cs1 (stereo unspecified)
3. CC(C)n1ccc(-c2cc(C(=O)NC3CC3)c3ccccn23)n1
4. CC(OCCCNC(=O)c1cccnc1O)c1ccccc1 (stereo unspecified)
5. COc1ccc(C(=O)N2CC[C@@]3(O)CCCC[C@H]3C2)cc1OC

stdout:
1: -9.1; 2: 6.22; 3: -5.4; 4: 4.88; 5: -43.4

Sourced from ChEMBL document CHEMBL4513216
